These entries and their values trace back to ChEMBL document CHEMBL4270571.

Tested on: Human immunodeficiency virus 1
Assay: Antiviral activity against HIV1 infected in human P4R5 cells assessed as reduction in viral infection preincubated with cells for 24 hrs followed by viral infection measured after 48 hrs by fluorescence based MAGI assay
Type: functional, organism-based

{"columns": ["Structure string", "EC50"],
 "data": [
  ["O=c1cc(Cc2ccc(Br)cc2)[nH]c(=O)n1O", "> 20 µM"],
  ["O=c1cc(Cc2cccc(-c3cccc(C(F)(F)F)c3)c2)[nH]c(=O)n1O", "> 20 µM"],
  ["CCOCn1c(Cc2ccc(-c3ccccc3)cc2)cc(=O)n(O)c1=O", "> 20 µM"]
]}

* * *

Tested on: Human immunodeficiency virus 1
Test: Antiviral activity against HIV1 infected in human P4R5 cells assessed as reduction in viral infection preincubated with cells for 24 hrs followed by viral infection measured after 48 hrs by fluorescence based MAGI assay
Type: functional, organism-based

{"columns": ["Structure string", "EC50"],
 "data": [
  ["O=c1cc(Cc2ccc(-c3cc(Cl)cc(C(F)(F)F)c3)cc2)[nH]c(=O)n1O", "> 20 µM"],
  ["O=c1cc(Cc2ccc(-c3cccc(Cl)c3)cc2)[nH]c(=O)n1O", "> 20 µM"],
  ["O=c1cc(Cc2ccc(-c3cccc(C(F)(F)F)c3)cc2)[nH]c(=O)n1O", "> 20 µM"]
]}

* * *

Quick list: pIC50 per entry.
Target: Human immunodeficiency virus type 1 reverse transcriptase (Human immunodeficiency virus 1)
Assay: Inhibition of recombinant HIV1 reverse transcriptase RNase H expressed in Escherichia coli JM109 using RNA/DNA duplex substrate HTS1 as substrate
pIC50: −log10 of the molar value.

{"columns": ["Structure string", "Measurement target", "pIC50"],
 "data": [
  ["O=c1cc(Cc2cccc(Br)c2)[nH]c(=O)n1O", "Human immunodeficiency virus type 1 reverse transcriptase (Human immunodeficiency virus 1)", 7.89],
  ["O=c1cc(Cc2cccc(-c3cccc(Cl)c3)c2)[nH]c(=O)n1O", "Human immunodeficiency virus type 1 reverse transcriptase (Human immunodeficiency virus 1)", 7.70],
  ["O=c1cc(Cc2cccc(-c3cc(Cl)cc(C(F)(F)F)c3)c2)[nH]c(=O)n1O", "Human immunodeficiency virus type 1 reverse transcriptase (Human immunodeficiency virus 1)", 7.42]
]}

* * *

Experiment: Cytotoxicity against human P4R5 cells assessed as reduction in cell viability after 72 hrs by XTT assay
Type: cell-based

{"columns": ["Structure string", "Reading qualifier", "CC50, µM"],
 "data": [
  ["O=c1cc(Cc2cccc(-c3cc(Cl)cc(C(F)(F)F)c3)c2)[nH]c(=O)n1O", ">", 100],
  ["O=c1cc(Cc2ccc(Br)cc2)[nH]c(=O)n1O", "=", 64],
  ["O=c1cc(Cc2ccc(-c3ccccc3)cc2)[nH]c(=O)n1O", "=", 11],
  ["O=c1cc(Cc2cccc(-c3cccc(C(F)(F)F)c3)c2)[nH]c(=O)n1O", ">", 100],
  ["O=c1cc(Cc2cccc(Br)c2)[nH]c(=O)n1O", "=", 63],
  ["CCOCn1c(Cc2ccc(-c3ccccc3)cc2)cc(=O)n(O)c1=O", ">", 100],
  ["O=c1cc(Cc2ccc(-c3cc(Cl)cc(C(F)(F)F)c3)cc2)[nH]c(=O)n1O", ">", 100],
  ["O=c1cc(Cc2ccc(-c3ccc(C(F)(F)F)cc3C(F)(F)F)cc2)[nH]c(=O)n1O", ">", 100],
  ["COc1ccc(-c2ccc(Cc3cc(=O)n(O)c(=O)[nH]3)cc2)cc1F", "=", 49],
  ["O=c1cc(Cc2ccc(-c3cccc(Cl)c3)cc2)[nH]c(=O)n1O", ">", 100],
  ["O=c1cc(Cc2ccc(-c3ccc(Cl)cc3Cl)cc2)[nH]c(=O)n1O", ">", 100],
  ["O=c1cc(Cc2cccc(-c3cccc(Cl)c3)c2)[nH]c(=O)n1O", "=", 62],
  ["Cc1cc(-c2cccc(Cc3cc(=O)n(O)c(=O)[nH]3)c2)ccc1F", "=", 37],
  ["O=c1cc(Cc2ccc(-c3cccc(F)c3)cc2)[nH]c(=O)n1O", "=", 24]
]}
